Reported kon values follow for various binders
assayedSystem: Human CD33 ECD-HSA (human)
Sequence (chain, as listed by the source): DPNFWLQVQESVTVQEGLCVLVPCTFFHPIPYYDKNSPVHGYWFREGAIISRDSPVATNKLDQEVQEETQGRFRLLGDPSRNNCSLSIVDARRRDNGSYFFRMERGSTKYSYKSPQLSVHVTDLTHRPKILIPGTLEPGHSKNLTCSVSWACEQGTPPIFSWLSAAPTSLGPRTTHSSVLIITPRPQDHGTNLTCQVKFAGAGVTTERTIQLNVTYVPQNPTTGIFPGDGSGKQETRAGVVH
assayMethodText: ProteOn SPR, mAb captured by anti-human Fc, 1:1 Langmuir fit
observedProperty: kon (M⁻¹ s⁻¹)

binder	endpointValue
C33B122 (antibody, IgG1, V domains shown, huIgG1 F405L; also called C33F127; C33H92/C33L30) VH: QLQLQESGPGLVKPSETLSLTCTVSGGSIRSSSYYWGWIRQPPGKGPEWIGSIYSSGNTYYNPSLKSRVTISVDTSKNQFSLKLISMTAADTAVFYCARLAATIVVPAARYFDCWGQGTLVTVSS VL: SYELTQPPSVSVSPGQTVSISCSGDRLGDKYACWYQQKPGQSPVLVIYQDSKRPSGIPERFSGSNSGNTATLTISGTQAMDEADYYCQAWDSSSYVFGTGTKVTVL	747000
C33B82 (antibody, IgG1, V domains shown, huIgG1 F405L; also called C33F87; C33H78/C33L57) VH: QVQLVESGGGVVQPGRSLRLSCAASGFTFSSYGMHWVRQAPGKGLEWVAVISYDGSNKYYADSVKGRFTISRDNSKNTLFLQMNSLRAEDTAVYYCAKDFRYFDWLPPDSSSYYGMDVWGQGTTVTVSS VL: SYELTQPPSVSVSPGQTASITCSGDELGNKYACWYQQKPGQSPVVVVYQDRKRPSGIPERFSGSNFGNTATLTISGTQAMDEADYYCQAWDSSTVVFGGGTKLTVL	445000
C33B52 (antibody, IgG1, V domains shown, huIgG1 F405L; also called C33F57; C33H42/C33L8) VH: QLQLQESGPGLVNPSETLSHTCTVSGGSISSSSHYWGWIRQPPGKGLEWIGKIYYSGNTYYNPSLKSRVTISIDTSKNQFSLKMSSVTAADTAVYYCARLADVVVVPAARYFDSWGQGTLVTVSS VL: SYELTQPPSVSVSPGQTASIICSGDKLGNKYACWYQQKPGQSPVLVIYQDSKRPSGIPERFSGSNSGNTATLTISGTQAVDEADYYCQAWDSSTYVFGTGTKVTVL	206000
C33B72 (antibody, IgG1, V domains shown, huIgG1 F405L; also called C33F77; C33H65/C33L47) VH: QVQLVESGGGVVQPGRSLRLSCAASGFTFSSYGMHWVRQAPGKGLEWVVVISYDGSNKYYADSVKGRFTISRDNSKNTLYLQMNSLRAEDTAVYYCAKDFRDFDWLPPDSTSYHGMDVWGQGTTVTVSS VL: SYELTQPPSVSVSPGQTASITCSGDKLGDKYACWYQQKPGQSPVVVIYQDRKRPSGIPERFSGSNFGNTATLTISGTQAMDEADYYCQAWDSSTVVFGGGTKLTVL	871000
C33B55 (antibody, IgG1, V domains shown, huIgG1 F405L; also called C33F60; C33H45/C33L11) VH: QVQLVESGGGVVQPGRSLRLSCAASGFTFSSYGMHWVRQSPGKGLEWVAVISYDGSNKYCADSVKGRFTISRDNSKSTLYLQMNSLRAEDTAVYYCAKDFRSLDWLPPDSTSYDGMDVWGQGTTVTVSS VL: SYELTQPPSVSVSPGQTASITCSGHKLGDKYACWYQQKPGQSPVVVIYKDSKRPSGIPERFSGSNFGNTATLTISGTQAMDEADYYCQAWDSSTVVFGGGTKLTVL	985000
